- Target desc: Protein smoothened (Mus musculus, UniProt P56726)
- Sequence (P56726 whole entry): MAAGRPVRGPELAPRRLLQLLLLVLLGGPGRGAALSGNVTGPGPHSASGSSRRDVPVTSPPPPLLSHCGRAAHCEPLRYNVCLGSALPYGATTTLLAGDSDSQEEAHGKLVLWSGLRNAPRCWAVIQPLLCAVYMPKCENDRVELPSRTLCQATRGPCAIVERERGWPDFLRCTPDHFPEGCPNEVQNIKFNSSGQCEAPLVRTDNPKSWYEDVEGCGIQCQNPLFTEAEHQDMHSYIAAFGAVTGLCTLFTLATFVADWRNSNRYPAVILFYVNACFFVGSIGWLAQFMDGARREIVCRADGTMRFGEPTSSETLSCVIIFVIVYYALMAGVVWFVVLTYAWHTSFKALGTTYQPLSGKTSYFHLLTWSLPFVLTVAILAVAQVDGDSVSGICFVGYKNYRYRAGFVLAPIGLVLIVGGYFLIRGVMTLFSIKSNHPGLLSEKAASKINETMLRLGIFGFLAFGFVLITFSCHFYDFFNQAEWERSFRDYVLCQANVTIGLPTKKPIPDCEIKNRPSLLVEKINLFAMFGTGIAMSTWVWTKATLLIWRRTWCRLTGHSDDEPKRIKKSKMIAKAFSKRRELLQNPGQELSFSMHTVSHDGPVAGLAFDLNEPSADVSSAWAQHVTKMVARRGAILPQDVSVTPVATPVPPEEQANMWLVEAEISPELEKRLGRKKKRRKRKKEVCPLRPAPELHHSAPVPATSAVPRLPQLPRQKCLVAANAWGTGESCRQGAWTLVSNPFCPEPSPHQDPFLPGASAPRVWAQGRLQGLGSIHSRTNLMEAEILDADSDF
- Assay: Inhibition of Smo-mediated Hh signalling pathway in mouse Shh Light2 cells by Gli-luciferase reporter gene assay
Reported metric: pIC50
The meaning of pIC50 here: minus log10 of the concentration in molar units.

molecule=C[C@@H]1CC[C@@H]([C@@H](C)C(=O)Nc2ccc(Cl)c(-c3ccccn3)c2)[C@H]2Cc3c(c4ccccc4n3C)C[C@H]21 target_desc="Protein smoothened (Mus musculus, UniProt P56726)" data_value=6.32

pIC50 of C[C@@H]1CC[C@@H]([C@@H](C)C(=O)Nc2ccc(Cl)c(-c3ccccn3)c2)c2nc(CN3CCOCC3)ccc21 on Protein smoothened (Mus musculus, UniProt P56726)?
6.81

Please do the same for C[C@@H]1CC[C@@H]([C@@H](C)C(=O)Nc2ccc(Cl)c(-c3ccccn3)c2)[C@H]2CC(=O)CC[C@H]21 as well.
6.54

What about this molecule? Cc1ccc2c(n1)[C@H]([C@@H](C)C(=O)Nc1ccc(Cl)c(-c3nc4ccccc4o3)c1)CC[C@H]2C
6.61

# iterate: Cc1ccc2c(n1)[C@H]([C@@H](C)C(=O)Nc1ccc(Cl)c(-c3ccccn3)c1)CC[C@H]2C
6.67

Request: Cc1ccc2c(n1)[C@H]([C@@H](C)C(=O)Nc1ccc(Cl)c(-c3nc4ccccc4n3C)c1)CC[C@H]2C
8.02

Cool, now Cc1ccc2c(n1)[C@H]([C@@H](C)C(=O)Nc1ccc(Cl)c(-c3nc4ccccc4s3)c1)CC[C@H]2C
6.55

* * *

- Assay: AUC (0 to infinity) in Sprague-Dawley rat at 1 mg/kg, iv
- Format: ADME, organism-based
- Set-up: dose 1 mg/kg, time infinity, route intravenous
- Applied conditions: in vivo
Reported metric: AUC(0-inf)
The number alone won't do; follow it with the unit.

Return reported AUC(0-inf); argument: Cc1ccc2c(n1)[C@H]([C@@H](C)C(=O)Nc1ccc(Cl)c(-c3nc4ccccc4n3C)c1)CC[C@H]2C
1.84 µg·h/mL

* * *

- Assay: MRT (0 to infinity) in Sprague-Dawley rat at 3 mg/kg, po
- Type: ADME, organism-based
- Applied conditions: in vivo
Reported metric: MRT inf

Give its MRT inf value. Item: Cc1ccc2c(n1)[C@H]([C@@H](C)C(=O)Nc1ccc(Cl)c(-c3nc4ccccc4n3C)c1)CC[C@H]2C
1.53 h

* * *

- Target desc: Protein smoothened (Mus musculus)
- Assay: Inhibition of Smo-mediated Hh signalling pathway in mouse Shh Light2 cells by Gli-luciferase reporter gene assay
Reported metric: IC50

The following compounds have reported results that may help.
chemical_structure=Cc1ccc2c(n1)[C@H]([C@@H](C)C(=O)Nc1ccc(Cl)c(-c3nc4ccccc4[nH]3)c1)CC[C@H]2C data_value="45.9 to 46 nM"
chemical_structure=Cc1ccc2c(n1)[C@H]([C@@H](C)C(=O)Nc1ccc(Cl)c(-c3nc4ccc(OC(F)(F)F)cc4n3C)c1)CC[C@H]2C data_value="52.6 nM"
chemical_structure=COC(=O)[C@H](C)c1ccc(C)c2ccc(C(=O)Nc3ccc(Cl)c(-c4ccccn4)c3)nc12 data_value="270 nM"

Could you now consider this next compound?
Would you kindly share the measured IC50 for C[C@H]1[C@@H](CC(=O)Nc2ccc(Cl)c(-c3ccccn3)c2)O[C@@H]2O[C@@]3(C)CC[C@H]4[C@H](C)CC[C@@H]1[C@@]24O3 ?
184 nM

Source listed as ChEMBL document CHEMBL3864137.
